IC50 for Leucine-rich repeat serine/threonine-protein kinase 2 (Homo sapiens), merged from several publications.

{"molecule": "Cc1c2c(nn1[C@@H]1CC1(F)F)OCCCn1nc(Cl)c3cnc(nc31)N2 (single isomer, unassigned)", "target": "Leucine-rich repeat serine/threonine-protein kinase 2 (Homo sapiens)", "IC50": "28 nM"}
{"molecule": "Cc1c2c(nn1[C@@H]1CCO[C@H](C)C1)OCCCn1nc(Cl)c3cnc(nc31)N2 (single isomer, unassigned)", "target": "Leucine-rich repeat serine/threonine-protein kinase 2 (Homo sapiens)", "IC50": "13 nM"}
{"molecule": "CCNc1cc(Nc2ccc(C(=O)N3CCOCC3)c3c2OCCO3)nc2[nH]cc(C(F)(F)F)c12", "target": "Leucine-rich repeat serine/threonine-protein kinase 2 (Homo sapiens)", "IC50": "< 100 nM"}
{"molecule": "Cc1cc(N2CCOCC2)ncc1Nc1ncc(C(F)(F)F)c(NCCCN2CCCCC2=O)n1", "target": "Leucine-rich repeat serine/threonine-protein kinase 2 (Homo sapiens)", "IC50": "300 to 600 nM"}
{"molecule": "Cc1c(F)cccc1-c1ccc2nc(NC(=O)C3CC3(F)F)cn2c1 (stereo not shown)", "target": "Leucine-rich repeat serine/threonine-protein kinase 2 (Homo sapiens)", "IC50": "101 to 1000 nM"}
{"molecule": "CNc1cc(Nc2ccc(C(=O)N3CC[C@H](N4CCOCC4)C3)c3c2OCC3)nc2[nH]cc(C(F)(F)F)c12", "target": "Leucine-rich repeat serine/threonine-protein kinase 2 (Homo sapiens)", "IC50": "< 100 nM"}
{"molecule": "CCc1cc(N2CCN(C)CC2)ccc1Nc1ncc(C(F)(F)F)c(NCCCN2CCCOC2=O)n1", "target": "Leucine-rich repeat serine/threonine-protein kinase 2 (Homo sapiens)", "IC50": "1 to 100 nM"}

---

pIC50: −log10 of the molar value.
Dear all, I have gathered published pIC50 values for Leucine-rich repeat serine/threonine-protein kinase 2 (Homo sapiens, UniProt Q5S007); the list follows.

{"compound_smiles": "COc1cc(S(=O)(=O)N2CCOCC2)ccc1Nc1cc(NC2CCC2)c2c(C#N)c[nH]c2n1", "pIC50": "> 7.00"}
{"compound_smiles": "CCc1cc(N2C[C@H]3C[C@@H]2CN3C)ccc1Nc1ncc(C(F)(F)F)c(NCCCN2CCOCCC2=O)n1", "pIC50": "6.52 to 7.00"}
{"compound_smiles": "CN1CCN(C(=O)c2cncc(-c3cnc4[nH]ccc4c3)n2)CC1", "pIC50": "< 6.00"}
{"compound_smiles": "Cc1nn(C2CCN(C(C)C)CC2)cc1Nc1ncc(Cl)c(NCCCN2CCCOCC2=O)n1", "pIC50": "6.52 to 7.00"}
{"compound_smiles": "N#Cc1c[nH]c2nccc(-c3ccsc3)c12", "pIC50": 5.89}
{"compound_smiles": "CC(C)c1cc(N2CCN(C)CC2)ccc1Nc1ncc(C(F)(F)F)c(NCCCNC(=O)C2CCC2)n1", "pIC50": "7.00 to 9.00"}
{"compound_smiles": "Cc1ccncc1-c1ccc2nc(NC(=O)[C@@H]3C[C@@H]3F)c(Cl)n2c1", "pIC50": "< 6.00"}
{"compound_smiles": "CN1CCC(Nc2cncc(-c3cnc4[nH]cc(Cl)c4c3)n2)CC1", "pIC50": "> 6.30"}
